biological target: E3 ubiquitin-protein ligase Mdm2 (Homo sapiens, UniProt Q00987); test: ELISA Assay: Streptavidin-coated 96-well plates are used to immobilise a biotin-tagged IP3 p53-derived peptide ([…]). This is a peptide analogue derived from the p53 binding site for MDM2 ([…]). […] Aliquots of MDM2 generated by in vitro translation are pre-incubated for 20 minutes at room temperature (i.e. 20-25C.) with test compounds and controls, before transfer into the IP3-coated 96-well plates.
Sequence (Q00987 whole entry): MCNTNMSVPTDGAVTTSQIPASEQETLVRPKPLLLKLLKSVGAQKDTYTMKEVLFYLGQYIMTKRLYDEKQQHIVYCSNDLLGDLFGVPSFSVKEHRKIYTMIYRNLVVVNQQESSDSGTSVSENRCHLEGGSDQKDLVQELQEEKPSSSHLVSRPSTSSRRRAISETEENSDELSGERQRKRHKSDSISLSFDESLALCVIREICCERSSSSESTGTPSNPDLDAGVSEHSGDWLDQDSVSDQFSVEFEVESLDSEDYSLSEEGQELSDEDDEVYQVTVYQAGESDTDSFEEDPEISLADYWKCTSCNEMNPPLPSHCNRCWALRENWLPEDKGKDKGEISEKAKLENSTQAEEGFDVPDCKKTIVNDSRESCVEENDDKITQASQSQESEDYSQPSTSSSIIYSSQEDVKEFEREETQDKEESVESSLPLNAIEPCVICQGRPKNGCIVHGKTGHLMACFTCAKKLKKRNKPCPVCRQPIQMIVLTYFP
endpoint: pIC50
Numbers only, as −log10 of the molar value.

Data request, read-out pIC50, for O=C1c2ccccc2C(O[C@H]2CCC[C@@H](O)CCC2)(c2ccc(Cl)cc2)N1Cc1ccc([N+](=O)[O-])cc1 (stereo partly specified)
6.43
